Test: xn = mol fraction of the nth substance listed, in the solute-free solvent
Settings: 313.15 K; x2 = 0.5
Class condition met: solubility (g/100 g solution) at least 8. Class condition not met: solubility (g/100 g solution) below 8.

Please review the following examples before continuing.
[
  {
    "compound": "Cl.NC(Cc1ccccc1)C(=O)OCc1ccccc1 (stereo unspecified) + CO + CC(C)=O",
    "class_name": "condition not met"
  },
  {
    "compound": "Cc1ncc(CO)c(CO)c1O.Cl + O + CC(C)O",
    "class_name": "condition not met"
  },
  {
    "compound": "Cl.N=C(N)NC(=N)N1CCOCC1 + O + CC(C)O",
    "class_name": "condition met"
  },
  {
    "compound": "Cc1c(Br)c(=O)n(C2CCCC2)c2nc(Cl)ncc12 + CCOC(C)=O + CCO",
    "class_name": "condition not met"
  }
]

Here's the next entry for you.
Q: Evaluate O=C(NC(C(=O)O)c1ccccc1)OCc1ccccc1 (stereo unspecified) + CCO + O : solubility (g/100 g solution) at minimum 8?
Ans: condition met
